# credit: patent US7399869B2

MEASURED_TARGET: DPP-8 (Homo sapiens, UniProt Q6V1X1)
Sequence (Q6V1X1 18-898 limits assumed): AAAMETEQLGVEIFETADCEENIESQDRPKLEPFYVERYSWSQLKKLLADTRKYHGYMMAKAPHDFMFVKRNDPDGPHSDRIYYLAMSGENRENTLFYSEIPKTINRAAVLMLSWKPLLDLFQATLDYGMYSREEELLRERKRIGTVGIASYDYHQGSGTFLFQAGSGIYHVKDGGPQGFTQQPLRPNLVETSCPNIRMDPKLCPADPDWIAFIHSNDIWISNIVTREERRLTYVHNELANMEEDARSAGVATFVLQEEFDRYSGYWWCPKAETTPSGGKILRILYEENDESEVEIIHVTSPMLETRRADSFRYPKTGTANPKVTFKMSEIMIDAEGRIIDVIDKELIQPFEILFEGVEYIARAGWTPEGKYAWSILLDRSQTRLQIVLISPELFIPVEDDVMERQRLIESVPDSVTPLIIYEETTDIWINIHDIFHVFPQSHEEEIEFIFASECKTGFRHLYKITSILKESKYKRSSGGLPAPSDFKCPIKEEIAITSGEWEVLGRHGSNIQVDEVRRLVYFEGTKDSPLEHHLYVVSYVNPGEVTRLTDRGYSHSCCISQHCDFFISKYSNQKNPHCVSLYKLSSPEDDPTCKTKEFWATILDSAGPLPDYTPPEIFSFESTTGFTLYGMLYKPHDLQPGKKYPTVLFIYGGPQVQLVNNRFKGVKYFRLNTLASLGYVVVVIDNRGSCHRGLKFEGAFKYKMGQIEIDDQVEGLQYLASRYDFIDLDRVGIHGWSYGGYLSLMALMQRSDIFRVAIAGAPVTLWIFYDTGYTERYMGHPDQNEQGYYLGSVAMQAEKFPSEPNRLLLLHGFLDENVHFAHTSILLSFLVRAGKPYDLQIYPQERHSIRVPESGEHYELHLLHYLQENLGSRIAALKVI
READOUT_NAME: pKi
Kindly note that pKi refers to -log10 of the concentration in mol/L and answer with the value alone.

(Q) pKi of CC(=O)NCC(=O)N1CCCC1B(O)O (stereo not shown) on DPP-8 (Homo sapiens, UniProt Q6V1X1)?
(A) 4.72

====

MEASURED_TARGET: FAP (Homo sapiens)
Sequence (Q12884 38-760): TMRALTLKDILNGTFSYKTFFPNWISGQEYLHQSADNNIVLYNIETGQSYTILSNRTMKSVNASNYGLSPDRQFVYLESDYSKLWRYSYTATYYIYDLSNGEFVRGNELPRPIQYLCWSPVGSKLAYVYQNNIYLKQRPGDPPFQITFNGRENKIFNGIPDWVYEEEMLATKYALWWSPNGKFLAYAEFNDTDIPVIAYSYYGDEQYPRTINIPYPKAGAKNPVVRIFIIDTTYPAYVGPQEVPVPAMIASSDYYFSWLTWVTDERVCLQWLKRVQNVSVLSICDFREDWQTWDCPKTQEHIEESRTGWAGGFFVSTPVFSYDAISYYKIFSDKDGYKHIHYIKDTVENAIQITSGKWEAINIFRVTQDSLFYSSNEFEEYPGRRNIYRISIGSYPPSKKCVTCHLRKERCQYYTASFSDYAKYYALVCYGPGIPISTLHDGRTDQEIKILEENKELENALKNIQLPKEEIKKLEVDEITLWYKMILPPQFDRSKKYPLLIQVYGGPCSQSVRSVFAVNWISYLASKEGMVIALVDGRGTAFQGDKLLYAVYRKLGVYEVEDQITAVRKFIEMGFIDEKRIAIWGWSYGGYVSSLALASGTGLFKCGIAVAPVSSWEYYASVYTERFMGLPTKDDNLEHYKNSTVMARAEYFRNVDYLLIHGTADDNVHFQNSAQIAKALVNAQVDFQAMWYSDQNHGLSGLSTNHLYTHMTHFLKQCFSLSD
PROCEDURE_DETAILS: Relative cleavage rates of coumarin (AMCC) dipeptide substrates by FAP
Type: biochemical
Set-up: FAP (amino acids 38-760); FLAG (N); made in house; host or cells: 293 cells (secreted, purified from serum-free conditioned media)
ASSAY_CONDITIONS: P2-Pro-AMCC substrates; hydrolysis rates normalized to Gly-Pro-AMCC
// reported Relative Hydrolysis rate by FAP for each item listed
Keep the answer to the number alone.

// known answers, use as guide
- MOLECULE: "Cc1c(CC(N)=O)c(=O)oc2cc(NC(=O)[C@@H]3CCCN3C(=O)[C@@H](C)N)ccc12"
  Relative Hydrolysis rate by FAP: 0
- MOLECULE: "CC(=O)NC(CO)C(=O)N1CCCC1C(=O)Nc1ccc2c(C)c(CC(N)=O)c(=O)oc2c1 (stereo not shown)"
  Relative Hydrolysis rate by FAP: 3
- MOLECULE: "NCCC(=O)O"
  Relative Hydrolysis rate by FAP: 2

Let us examine a further case.
(Q) Entry CC(=O)NC(C)C(=O)N1CCCC1C(=O)Nc1ccc2c(C)c(CC(N)=O)c(=O)oc2c1 (stereo not shown) : reported Relative Hydrolysis rate by FAP = ?
(A) 3
